Test system: Staphylococcus aureus
Experiment: Antibacterial activity against community-acquired methicillin and erythromycin resistant Staphylococcus aureus SA 325 after 18 to 24 hrs by microdilution assay
Assay type: functional
// MIC lookup, one value per entry

| structure notation | reported |
| --- | --- |
| O=C(NNC(=S)Nc1cccnc1)c1ccccc1O | > 100 µM |
| O=C(NNC(=S)Nc1ccc(Cl)cc1Cl)c1ccccc1O | 50 µM |
| O=C(NNC(=S)Nc1cccc(I)c1)c1ccccc1O | > 100 µM |
| COc1ccccc1NC(=S)NNC(=O)c1ccccc1O | > 100 µM |
| O=C(NNC(=S)Nc1cccc(Cl)c1)c1ccccc1O | 100 µM |

MIC recorded for this molecule, CC(=O)c1ccc(NC(=S)NNC(=O)c2ccccc2O)cc1 , is > 100 µM

MIC recorded for this molecule, N#Cc1ccc(NC(=S)NNC(=O)c2ccccc2O)cc1 , is > 100 µM

MIC recorded for this molecule, O=C(NNC(=S)Nc1ccccc1F)c1ccccc1O , is > 100 µM

MIC recorded for this molecule, O=C(NNC(=S)NCCCN1CCOCC1)c1ccccc1O , is > 100 µM

MIC recorded for this molecule, O=C(NNC(=S)Nc1ccc(Cl)c(Cl)c1)c1cc2ccccc2cc1O , is > 100 µM

====

Molecular target: D-alanine--D-alanine ligase (Enterococcus faecalis (strain ATCC 700802 / V583), UniProt Q47758)
Sequence (Q47758 whole entry): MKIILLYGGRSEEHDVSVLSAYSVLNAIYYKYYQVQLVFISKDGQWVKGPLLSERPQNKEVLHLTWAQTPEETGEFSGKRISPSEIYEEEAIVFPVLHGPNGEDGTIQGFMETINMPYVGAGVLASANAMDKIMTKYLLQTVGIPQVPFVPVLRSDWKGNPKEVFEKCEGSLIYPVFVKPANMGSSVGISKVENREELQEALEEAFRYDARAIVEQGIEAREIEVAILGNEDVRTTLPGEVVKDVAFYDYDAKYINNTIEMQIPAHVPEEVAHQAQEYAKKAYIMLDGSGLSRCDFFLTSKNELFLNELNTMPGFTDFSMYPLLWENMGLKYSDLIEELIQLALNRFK
Experiment: Inhibition of Enterococcus faecalis JH2-2 C-terminal 6His-tagged DdlB expressed in Escherichia coli LMG194 preincubated for 30 mins followed by substrate addition and measured after 20 mins by Biomol Green reagent assay
// pIC50 lookup, one value per entry
Remember the convention: pIC50 equals -log10 of concentration in molar.

Example cases with answers are listed next.
| structure notation | pIC50 |
| --- | --- |
| CC(=O)c1ccc(NC(=S)NNC(=O)c2ccccc2O)cc1 | 6.43 |
| O=C(NNC(=S)Nc1ccc(Cl)cc1Cl)c1ccccc1O | 6.24 |
| O=C(NNC(=S)Nc1cccc(F)c1)c1ccccc1O | 7.00 |
| O=C(NNC(=S)Nc1ccc(Cl)c(Cl)c1)c1ccccc1O | 5.81 |
| O=C(NNC(=S)Nc1ccc(Cl)c(Cl)c1)c1cc2ccccc2cc1O | 6.25 |

pIC50 recorded for this molecule, COc1ccc(NC(=S)NNC(=O)c2ccccc2O)cc1 , is 6.15

pIC50 recorded for this molecule, O=C(NNC(=S)Nc1cccc2ccccc12)c1ccccc1O , is 6.28

pIC50 recorded for this molecule, O=C(NNC(=S)Nc1ccc(OC(F)(F)F)cc1)c1ccccc1O , is 6.15

====

Test system: Staphylococcus aureus
Assay: Antibacterial activity against methicillin and linezolid resistant Staphylococcus aureus NRS 119 clinical isolate after 18 to 24 hrs by microdilution assay
Assay type: functional
// MIC lookup, one value per entry

| structure notation | target or test system | MIC |
| --- | --- | --- |
| O=C(NNC(=S)Nc1ccc(OC(F)(F)F)cc1)c1ccccc1O | Staphylococcus aureus | 100 µM |
| COc1ccccc1NC(=S)NNC(=O)c1ccccc1O | Staphylococcus aureus | > 100 µM |
| O=C(NNC(=S)Nc1cccc(Cl)c1)c1ccccc1O | Staphylococcus aureus | > 100 µM |
| CC(=O)NC[C@H]1CN(c2ccc(N3CCOCC3)c(F)c2)C(=O)O1 | Staphylococcus aureus | 190 µM |
| O=C(NNC(=S)Nc1cccc2ccccc12)c1ccccc1O | Staphylococcus aureus | > 100 µM |
| O=C(NNC(=S)Nc1ccc(Cl)c(Cl)c1)c1ccc(I)cc1O | Staphylococcus aureus | > 100 µM |
| O=C(NNC(=S)Nc1ccc(Cl)c(Cl)c1)c1cc2ccccc2cc1O | Staphylococcus aureus | > 100 µM |
| CCCCCNC(=S)NNC(=O)c1ccccc1O | Staphylococcus aureus | > 100 µM |

MIC recorded for this molecule, Nc1ccc(C(=O)NNC(=S)Nc2ccc(Cl)c(Cl)c2)c(O)c1 , is > 100 µM

MIC recorded for this molecule, CC(=O)c1ccc(NC(=S)NNC(=O)c2ccccc2O)cc1 , is > 100 µM

MIC recorded for this molecule, O=C(NNC(=S)Nc1ccccc1Cl)c1ccccc1O , is 100 µM

MIC recorded for this molecule, O=C(NNC(=S)NCCCN1CCOCC1)c1ccccc1O , is > 100 µM

MIC recorded for this molecule, O=C(NNC(=S)Nc1ccc(OCc2ccccc2)cc1)c1ccccc1O , is > 100 µM

====

Test system: Enterococcus faecalis
Assay: Antibacterial activity against vancomycin-resistant Enterococcus faecalis BM 4390 after 18 to 24 hrs by microdilution assay
Format: functional
// MIC lookup, one value per entry

| structure notation | MIC |
| --- | --- |
| O=C(NNC(=S)Nc1ccc(OC(F)(F)F)cc1)c1ccccc1O | > 100 µM |
| O=C(NNC(=S)NCCCN1CCOCC1)c1ccccc1O | > 100 µM |
| O=C(NNC(=S)Nc1ccc(Cl)c(Cl)c1)c1ccccc1O | 50 µM |
| O=C(NNC(=S)Nc1ccc(Cl)cc1)c1ccccc1O | > 100 µM |
| O=C(NNC(=S)Nc1ccccc1Cl)c1ccccc1O | > 100 µM |

Query molecule follows.
MIC recorded for this molecule, O=C(NNC(=S)Nc1cccc2ccccc12)c1ccccc1O , is > 100 µM

====

Experiment: Inhibition of Bacillus cereus beta-lactamase using nitrocefin as substrate preincubated for 15 mins followed by substrate addition and measured after 60 mins by spectrophotometric analysis
reported metric: pIC50
Remember the convention: pIC50 equals -log10 of concentration in molar.

pIC50 recorded for this compound, O=C(NNC(=S)Nc1ccc(Cl)c(Cl)c1)c1ccccc1O , is 7.96

====

System: Staphylococcus aureus
Assay: Antibacterial activity against methicillin and linezolid resistant Staphylococcus aureus NRS 119 clinical isolate after 18 to 24 hrs by microdilution assay
Type: functional
reported metric: MIC

| structure notation | MIC |
| --- | --- |
| O=C(NNC(=S)Nc1ccccc1)c1ccccc1O | > 100 µM |
| N#Cc1ccc(NC(=S)NNC(=O)c2ccccc2O)cc1 | > 100 µM |
| O=C(NNC(=S)Nc1ccc(Cl)cc1Cl)c1ccccc1O | 25 µM |
| O=C(NNC(=S)Nc1ccc(Cl)cc1)c1ccccc1O | > 100 µM |
| COc1ccc(NC(=S)NNC(=O)c2ccccc2O)cc1 | > 100 µM |

MIC recorded for this molecule, O=C(NNC(=S)Nc1cccc(I)c1)c1ccccc1O , is > 100 µM

====

System: THP-1
Assay: Cytotoxicity against human THP1 cells assessed as decrease in cell viability at 1 to 5 times MIC after 24 hrs by trypan blue exclusion assay relative to control
Type: cell-based
Details: thp-1, 24 h
reported metric: Activity

Activity recorded for this compound, O=C(NNC(=S)Nc1ccc(Cl)c(Cl)c1)c1ccccc1O , is 12 to 25%

====

// MIC lookup, one value per entry
Test system: Staphylococcus aureus
Experiment: Antibacterial activity against community-acquired methicillin and erythromycin resistant Staphylococcus aureus SA 325 after 18 to 24 hrs by microdilution assay
Type: functional

Example cases with answers are listed next.
| structure notation | reported |
| --- | --- |
| O=C(NNC(=S)Nc1ccc(OCc2ccccc2)cc1)c1ccccc1O | > 100 µM |
| O=C(NNC(=S)Nc1ccc(F)cc1)c1ccccc1O | > 100 µM |
| O=C(NNC(=S)Nc1ccc(Cl)c(Cl)c1)c1ccccc1O | 50 µM |

Form: item O=C(NNC(=S)Nc1cccc(F)c1)c1ccccc1O ; test system Staphylococcus aureus; MIC: > 100 µM

Form: item O=C(NNC(=S)Nc1ccc(OC(F)(F)F)cc1)c1ccccc1O ; test system Staphylococcus aureus; MIC: 100 µM

Form: item Nc1ccc(C(=O)NNC(=S)Nc2ccc(Cl)c(Cl)c2)c(O)c1 ; test system Staphylococcus aureus; MIC: > 100 µM

Form: item O=C(NNC(=S)Nc1ccc(Cl)cc1)c1ccccc1O ; test system Staphylococcus aureus; MIC: > 100 µM

Form: item O=C(NNC(=S)Nc1cccc2ccccc12)c1ccccc1O ; test system Staphylococcus aureus; MIC: > 100 µM

Form: item CCCCCNC(=S)NNC(=O)c1ccccc1O ; test system Staphylococcus aureus; MIC: > 100 µM

Form: item O=C(NNC(=S)Nc1ccccc1Cl)c1ccccc1O ; test system Staphylococcus aureus; MIC: 100 µM

Form: item O=C(NNC(=S)Nc1ccccc1)c1ccccc1O ; test system Staphylococcus aureus; MIC: > 100 µM

Form: item COc1ccc(NC(=S)NNC(=O)c2ccccc2O)cc1 ; test system Staphylococcus aureus; MIC: > 100 µM

Form: item O=C(NNC(=S)Nc1ccc(Cl)c(Cl)c1)c1ccc(I)cc1O ; test system Staphylococcus aureus; MIC: > 100 µM
